Known TGI of a selection of compounds
Tested on: U251 CNS
ASSAY_NOTES: NCI tumour cell line growth inhibition, 48 h

Some entries whose results are on file:
Cn1c(=O)c2sc3c4sc5c(=O)n(C)c6ccccc6c5c4sc3c2c2ccccc21: > 100 µM
Cc1ccc(S(=O)(=O)NC(=O)Nc2cccc(S(N)(=O)=O)c2)cc1: > 100 µM
N#CCCN(CCC#N)c1ccc(C(N=Nc2ccc(Cl)cc2)=Nc2ccccc2)cc1: 32.4 µM
COc1cc(Cl)cc(-c2nn(-c3cccc(NC(=O)Nc4cccc(C(F)(F)F)c4)c3)cc2-c2ccncc2)c1: 2.91 µM
COc1ccc2c(c1)c1c(n2CCN2CCOCC2)-c2cccc(OC)c2CC1: > 100 µM

Could you please provide reported TGI for [N-]=[N+]=NC1(c2ccccc2)C(=O)C(Cl)=C(c2ccccc2)N(c2ccccc2)C1=O (stereo not given) ? Thanks! > 100 µM

Could you please provide reported TGI for COc1ccc(C2C(C#N)=C(S)N(C3OC(COC(C)=O)C(OC(C)=O)C(OC(C)=O)C3OC(C)=O)C(C)=C2C(C)=O)cc1 (stereo not given) ? Thanks! > 100 µM

Could you please provide reported TGI for CCOC(=O)C(=O)Nc1cc(Cl)c(Cl)cc1Cl ? Thanks! > 100 µM

* * *

Tested on: DU-145 prostate
ASSAY_NOTES: NCI tumour cell line growth inhibition, 48 h
Known log10 TGI of a selection of compounds
Field: value | Transform: log10 | Quantity: TGI | Unit: µM

Some entries whose results are on file:
CC(=O)NC1C(OC(C)C(=O)NC(C(=O)NC(CCC(=O)NCCCNC2c3ccccc3Nc3cccc([N+](=O)[O-])c32)C(N)=O)C(C)C)C(O)C(CO)OC1(C)OCc1ccccc1 (stereo not given): -0.09
Cc1cc(-c2nnc(/C=C/c3ccc4c(c3)OCO4)o2)n[nH]1: 1.47
Cc1cccc(NC(=O)O/N=C(\Cl)C(C)C)c1: 1.52
CNCC/C=C1\c2cc3c(cc2-c2c1c1cc(OC)c(OC)cc1c(=O)n2C)OCO3: 0.95
CC(C)(C)OC(=O)N1CC(CCl)c2ccc(O)cc21 (stereo not given): 0.76

Could you please provide reported log10 TGI for CO[C@@H]1CCN(c2nccc(Nc3cc4c(C(C)C)ccc(N5CC(CS(C)(=O)=O)[C@H]5C)c4cn3)n2)C[C@@H]1F (stereo not given in full) ? Thanks! 1.65

Could you please provide reported log10 TGI for COc1cc2cc(C(=O)N3CC(CCl)c4ccc([N+](C)(C)Cc5ccc([N+](=O)[O-])cc5)cc43)[nH]c2c(OC)c1OC (stereo not given) ? Thanks! 1.03

Could you please provide reported log10 TGI for O=[N+]([O-])C1=Cc2cc(Cl)ccc2OC1c1cccc2ccccc12 (stereo not given) ? Thanks! 0.67

* * *

Tested on: 786-0 renal
ASSAY_NOTES: NCI tumour cell line growth inhibition, 48 h
Known TGI of a selection of molecules

Some entries whose results are on file:
Cc1cc(C)c2c(n1)S(=O)(=O)N(CCCN1CCN(c3cccc(Cl)c3)CC1)/C(=C(\O)c1ccccc1)C2=O: > 100 µM
O=C1CC(c2c(-c3ccccc3)[nH]c3ccccc23)C(=O)N1c1ccccc1 (stereo not drawn): > 100 µM
COC(=O)CN(CC(O)C(NC(C)=O)C(O)C=O)C(=O)OCc1ccccc1 (stereo not drawn): > 100 µM
COC(=O)CCC1=NCC(C)(C)O1: > 10 µM
CNC(=O)N(CCC#N)CCN(C(=O)N(C)C)c1ccccc1: > 100 µM

Could you please provide reported TGI for OB(O)c1ccccc1C#Cc1ccccc1B(O)O ? Thanks! > 100 µM

Could you please provide reported TGI for CCN(CC)c1c(-c2ccccc2)n[nH]c1C(=O)OC ? Thanks! 96.2 µM

Could you please provide reported TGI for CNCCN[C@@H]1c2cc3c(cc2[C@@H](c2cc(OC)c(O)c(OC)c2)[C@H]2C(=O)OC[C@@H]21)OCO3 ? Thanks! 0.487 µM

* * *

Test system: HL-60(TB) leukemia
ASSAY_NOTES: NCI tumour cell line growth inhibition, 48 h; in the data active = GI50 below about 0.43 µM; inactive = the rest
Give one outcome, nothing more. List: active, inactive

Nc1c(C(=O)Nc2ccccn2)sc2nc3c(cc12)C(O)CCC3 (centres undefined): inactive

Hello, I am checking results. What call was entered for C[C@]12CC[C@@H]3c4ccc(O)cc4CC[C@H]3[C@@H]1CC[C@@H]2NS(=O)(=O)c1ccc(Br)cc1 ? inactive

Hello, I am checking results. What call was entered for N#Cc1ccc(-c2c(-c3ncn[nH]3)sc(N3CCOCC3)c2C#N)c(F)c1 ? inactive

Hello, I am checking results. What call was entered for CCOC(=O)C(Cc1c[nH]c2cc(N(CCO)CCO)ccc12)(NC(C)=O)C(=O)OCC ? inactive

Hello, I am checking results. What call was entered for O=[N+]([O-])c1cccc(-c2nc(-c3ccc(Cl)cc3Cl)cn2-c2ccccc2)c1 ? inactive

Hello, I am checking results. What call was entered for CCCCCCCCCC[C@@H](O)[C@@H]1CC[C@@H]([C@@H]2CC[C@@H]([C@@H](O)CCCCCCCCCC[C@H](O)CC3=CC(C)OC3=O)O2)O1 (some centres undefined) ? inactive

Hello, I am checking results. What call was entered for O=C(NCCc1ccccc1)Nc1ccc2cc3ccc(NC(=O)NCCc4ccccc4)cc3nc2c1 ? active

Hello, I am checking results. What call was entered for Cc1ccc(C(=O)NCCCOc2ccc(N3C(N)=NC(N)=NC3(C)C)cc2Cl)cc1S(=O)(=O)F ? inactive

Hello, I am checking results. What call was entered for NCCCCCNc1noc(Cc2c[nH]c3cc(Br)ccc23)n1 ? inactive

* * *

System: OVCAR-8 ovarian
ASSAY_NOTES: NCI tumour cell line growth inhibition, 48 h
Known GI50 of a selection of molecules

Some entries whose results are on file:
O=C(O)c1cc2ccccc2c2c3c(ccc12)OCO3: 186 µM
COc1cc(Cl)cc(-c2nn(-c3cccc(NC(=O)Nc4cccc(C(F)(F)F)c4)c3)cc2-c2ccncc2)c1: 1.12 µM
Cc1ccc(S(=O)(=O)OCC#CCOS(=O)(=O)c2ccc(C)cc2)cc1: 2.45 µM
C[C@H]1C/C=C/[C@H]2[C@@H]3O[C@]3(C)[C@@H](C)[C@H]3[C@H](Cc4ccccc4)NC(=O)[C@]32OC(=O)O/C=C/[C@@](C)(O)C1=O: 15 µM
C[C@]12CC[C@@H]3c4ccc(O)cc4CC[C@H]3[C@@H]1CC[C@@H]2NS(=O)(=O)c1ccc(Br)cc1: 3.14 µM

Could you please provide reported GI50 for CCN(CC)c1c(-c2ccccc2)n[nH]c1C(=O)OC ? Thanks! 15.5 µM

Could you please provide reported GI50 for Cc1ccc(C(=O)NCCCOc2ccc(N3C(N)=NC(N)=NC3(C)C)cc2Cl)cc1S(=O)(=O)F ? Thanks! 85.8 µM

Could you please provide reported GI50 for COc1cccc(-c2nn(-c3ccccc3)cc2-c2ccnc(NCCCNC(=O)c3cccc(C(F)(F)F)c3)c2)c1 ? Thanks! 4.67 µM

Could you please provide reported GI50 for COc1ccc(C(C)c2cc(OC)c(OC)c(OC)c2)cc1 (centres undefined) ? Thanks! 0.263 µM

* * *

Known GI50 of a selection of molecules
Tested on: OVCAR-4 ovarian
ASSAY_NOTES: NCI tumour cell line growth inhibition, 48 h

Some entries whose results are on file:
Cc1ccc(S(=O)(=O)OCC#CCOS(=O)(=O)c2ccc(C)cc2)cc1: 4.81 µM
C=C1c2ccccc2C(=O)c2c1c1c(C(=O)OC)c(OC(=O)OCc3ccc([N+](=O)[O-])cc3)ccc1n2Cc1ccccc1: 23.2 µM
CCC1C(C)C=NN1c1nc(N)nc(C(C#N)=Nc2ccc(N(C)C)cc2)n1 (stereo not given): 16.3 µM
Cc1ccc(Nc2cc(Cl)c([N+](=O)[O-])cc2[N+](=O)[O-])cc1: 4.52 µM

Please find the next molecule below.
Could you please provide reported GI50 for Cc1ccc(C(=O)NCCCOc2ccc(N3C(N)=NC(N)=NC3(C)C)cc2Cl)cc1S(=O)(=O)F ? Thanks! 81.2 µM

* * *

Test system: HOP-62 NSCLC
ASSAY_NOTES: NCI tumour cell line growth inhibition, 48 h
Known TGI of a selection of compounds

Some entries whose results are on file:
Cc1coc2c1C(=O)C(=O)c1ccccc1-2: 3 µM
COc1ccc(/C=C2\C[C@H]3[C@@H]4CC=C5C[C@@H](OC(C)=O)CC[C@]5(C)[C@H]4CC[C@]3(C)\C2=N\O)cc1OC: > 100 µM
O=S(=O)(O)c1cc(S(=O)(=O)O)c2cc(N=Nc3c(O)ccc4ccccc34)ccc2c1: > 100 µM
CC(C)(C)c1cc2c(c(C(C)(C)C)c1O)CC(=O)O2: 92.8 µM
Cc1cc(N(CCC#N)CCC#N)ccc1N=Nc1cc(Cl)ccc1Cl: 35.3 µM

Could you please provide reported TGI for O=C1CC[C@H](N2Cc3c(OCc4ccc(CN5CCOCC5)cc4)cccc3C2=O)C(=O)N1 ? Thanks! > 100 µM

Could you please provide reported TGI for O=C(Nc1cccc(-n2cc(-c3ccncc3)c(-c3ccc(O)c(Cl)c3)n2)c1)c1ccc2c(c1)OCCO2 ? Thanks! > 100 µM

Could you please provide reported TGI for C/C(=N\NC(=O)C[N+](C)(C)C)c1sc(-c2cccnc2)nc1C ? Thanks! > 100 µM
